- Tested on: COLO 205
- Protocol Description: Antiproliferative activity against human COLO 205 cells assessed as cell growth inhibition by MTT assay
- Type: functional, cell-based
Here, each record is paired with measured pIC50 data.
Remember the convention: pIC50 equals -log10 of concentration in molar.

Previously resolved entries follow.
| Mol Smiles | Tgt | pIC50 |
| --- | --- | --- |
| COc1ccc2[nH]c3c(C)cc(-c4cc(-c5ccc(C(F)(F)F)cc5)nc(N)n4)c(C)c3c2c1 | COLO 205 | 7.00 |
| COc1ccc2[nH]c3c(C)cc(-c4cc(-c5ccc(F)cc5)nc(N)n4)c(C)c3c2c1 | COLO 205 | 7.00 |

Then this compound:
Reported pIC50 for COc1ccc2[nH]c3c(C)cc(-c4cc(-c5ccc(C(F)(F)F)cc5F)nc(N)n4)c(C)c3c2c1 : what is it?
7.00

====

- Protocol Description: Cytotoxicity activity against African green monkey vero cells assessed as cell growth inhibition measured after 72 hrs by MTT assay
- Type: toxicity, cell-based, Chlorocebus sabaeus
Endpoint Label: IC50 at 72 h

Requested field: IC50 at 72 h. Item: Cc1c2ccncc2c(C)c2c1[nH]c1c(S(=O)(=O)O)cc(Br)cc12
> 100 µM

====

- System: OVCAR-3
- Protocol Description: Antiproliferative activity against human OVCAR-3 cells assessed as cell growth inhibition measured after 48 hrs by MTT assay
- Format: functional, cell-based
- Measurement Setup: OVCAR-3, 48 h
Endpoint Label: IC50 (µM)
Please respond with the number in µM and leave the unit unwritten.

Requested read-out IC50, target or system OVCAR-3, entry COc1ccc2[nH]c3c4c(c(C)cc3c2c1)OC(C)(C)C=C4
0.2

====

- System: HEp-2
- Protocol Description: Cytotoxicity against human HEp-2 cells assessed as cell growth inhibition by MTT assay
- Format: functional, cell-based
Quick reference: IC50 of the listed items.
Write down the numeric answer in µM and omit the unit.

Solved entries (count: 2):
| Compound | IC50 (µM) |
| --- | --- |
| Cc1c2ccncc2c(C)c2c1[nH]c1ccccc12 | 9.85 |
| O=C1c2ccsc2N=C2c3[nH]c4ccc(Cl)cc4c3CCC12 (stereo not drawn) | 3.6 |

Field: next compound
Fill in: IC50 of O=C1c2ccsc2N=C2c3[nH]c4ccc(Br)cc4c3CCC12 (stereo not drawn) is ___
5.75

====

- Test system: KYSE-140
- Protocol Description: Antiproliferative activity against human KYSE-140 cells assessed as cell growth inhibition measured after 48 hrs by CCK-8 assay
- Format: functional, cell-based
- Measurement Setup: KYSE-140, 48 h
Endpoint Label: pIC50
Interpret pIC50 as the negative base-10 log of the concentration measured in mol/L.

Look up pIC50 with KYSE-140 for this molecule: COc1ccc(NS(=O)(=O)c2ccc3c(c2)c2cc(O)ccc2n3C)c(OC)n1
8.00

====

- System: SK-OV-3
- Protocol Description: Antiproliferative activity against human SK-OV-3 cells assessed as cell growth inhibition measured after 24 hrs by MTT assay
- Format: functional, cell-based
- Measurement Setup: SK-OV-3, 24 h
Endpoint Label: pIC50
Note on pIC50: it is the negative log10 of concentration, concentration in mol/L.

What value of pIC50 has been recorded for this entry: CNC1=C([N+](=O)[O-])C(c2cc(OC)c(OC)c(OC)c2)c2ccc3[nH]c4ccccc4c3c2O1 (stereo unspecified)
5.29

====

- System: K562
- Protocol Description: Cytotoxicity activity against human K562 cells assessed as cell growth inhibition measured after 72 hrs by MTT assay
- Type: functional, cell-based
- Measurement Setup: K562, 72 h
Endpoint Label: pIC50
A value of pIC50 is the negative decimal logarithm of a concentration given in moles per litre.

Requested read-out pIC50, target or system K562, entry Cc1c2ccncc2c(C)c2c1[nH]c1c(S(=O)(=O)O)cc(Br)cc12
4.46

====

compounds and their reported IC50 at 48 h
- Protocol Description: Cytotoxicity against human RPE-1 cells assessed as cell growth inhibition measured after 48 hrs by MTT assay
- Format: toxicity, cell-based
- Measurement Setup: RPE-1 (TERT-RPE1) cells

Illustrative cases are given below, each with its answer.
| Mol Smiles | Endpoint Label | Result |
| --- | --- | --- |
| CCn1c2ccccc2c2cc(NC(=O)c3cc4cccc(OC)c4oc3=O)ccc21 | IC50 at 48 h | > 100 µM |
| CCn1c2ccccc2c2cc(NC(=O)c3c(N)n[nH]c3Nc3ccccc3)ccc21 | IC50 at 48 h | > 100 µM |

Now take the following compound into account.
Entry under review: CCn1c2ccccc2c2cc(NC(=O)c3c(N)n[nH]c3Nc3ccc(Cl)cc3)ccc21 . Reported IC50 at 48 h?
> 100 µM

====

Recorded pIC50 by entry
- Tgt: Urokinase-type plasminogen activator (Homo sapiens, UniProt P00749)
- Protocol Description: Inhibition of urokinase plasminogen activator in human MCF7 cells measured after 24 hrs by ELISA method
Here pIC50 is given on a logarithmic scale as minus log10 of the concentration in mol/L.

| Molecule | Tgt | pIC50 |
| --- | --- | --- |
| c1cncc(C2c3[nH]c4ccccc4c3C(c3cccnc3)c3[nH]c4ccccc4c32)c1 (configuration not stated) | Urokinase-type plasminogen activator (Homo sapiens, UniProt P00749) | 5.57 |

Okay, next one:
What measured pIC50 goes with O=[N+]([O-])c1coc(C2c3[nH]c4ccccc4c3C(c3cc([N+](=O)[O-])co3)c3[nH]c4ccccc4c32)c1 (configuration not stated) ?
5.42

====

- Protocol Description: Cytotoxicity against human MCF-12A cells assessed as cell growth inhibition measured after 72 hrs by MTT assay
- Assay type: toxicity, cell-based
Endpoint Label: IC50 at 72 h

Need IC50 at 72 h, item CC[n+]1c(/C=C/c2ccc3c(c2)c2ccccc2n3CCCCn2ccnc2)sc2ccccc21
> 18 µM

====

- Protocol Description: Cytotoxicity activity against human PBMC cells assessed as cell growth inhibition measured after 72 hrs by MTT assay
- Format: toxicity, cell-based
Endpoint Label: IC50 at 72 h

For Cc1c2ccncc2c(C)c2c1[nH]c1c(S(=O)(=O)O)cc(Br)cc12 , what is its reported IC50 at 72 h?
> 100 µM

====

- Protocol Description: Cytotoxicity against human HaCaT cells assessed as cell growth inhibition measured after 24 hrs by MTT assay
- Format: toxicity, cell-based
Endpoint Label: IC50 at 24 h

Any idea what IC50 at 24 h was measured for COc1ccc2c(c1)[nH]c1c3c(c(C)cc12)OC(C)(C)C=C3 ?
> 100 µM

====

- Tested on: OVCAR-3
- Protocol Description: Antiproliferative activity against human OVCAR-3 cells assessed as cell growth inhibition measured after 48 hrs by SRB assay
- Format: functional, cell-based
- Measurement Setup: OVCAR-3, 48 h
Endpoint Label: IC50 (nM)
Lab book: enter the figure in nM, no units written.

| Compound | Result Number |
| --- | --- |
| Cc1c2ccncc2c(/C=C/C(C)NC=O)c2c1[nH]c1ccccc12 (configuration not stated) | 1250 |

Turning now to a further compound:
Using the record for Cc1c2ccncc2c(C(=O)NCc2ccccc2)c2c1[nH]c1ccccc12 , report its IC50.
1710

====

- Protocol Description: Cytotoxicity against human Kidney epithelial cells assessed as cell growth inhibition measured after 24 hrs by XTT assay
- Assay type: toxicity, cell-based
Endpoint Label: IC50 at 24 h

Query: IC50 at 24 h; subject: CN(C)CCCNC(=O)c1ccc(-n2cc(-c3ccc4c(c3)c3ccccc3n4CCCN(C)C)nn2)cc1
> 30 µM

====

- Tested on: MDA-MB-231
- Protocol Description: Antiproliferative activity against human MDA-MB-231 cells assessed as cell growth inhibition measured after 72 hrs by MTT assay
- Assay type: functional, cell-based
- Measurement Setup: MDA-MB-231, 72 h
Endpoint Label: IC50 (µM)
Entry rule: numbers only, all in µM.

| Compound | IC50 / µM |
| --- | --- |
| OC(CN1CCCCC1)Cn1c2ccc(Cl)cc2c2cc(Cl)ccc21 (stereo not given) | 7.1 |
| CC1CCCCN1CC(O)Cn1c2ccc(Cl)cc2c2cc(Cl)ccc21 (stereo not given) | 7.1 |
| C[N+](C)(C)CCN1CCN(CCCCCCn2c3ccccc3c3cc(Cl)ccc32)CC1 | 4.4 |

Value lookup for IC50; key = C[N+](C)(C)CCN1CCN(CCCCCn2c3ccccc3c3cc(Cl)ccc32)CC1
4.4

CC1CCN(CC(O)Cn2c3ccc(Cl)cc3c3cc(Cl)ccc32)CC1 (stereo not given) ?
7.1

====

List of pIC50 values.
- System: HeLa
- Protocol Description: Cytotoxicity against human HeLa cells assessed as cell growth inhibition by MTT assay
- Type: functional, cell-based
Keep in mind that pIC50 stands for -log10 of concentration in molar terms.

Check out these entries, answers already filled in.
| Compound | pIC50 |
| --- | --- |
| O=C1c2ccsc2N=C2c3[nH]c4ccc(Cl)cc4c3CCC12 (centres undefined) | 5.44 |
| O=C1c2ccsc2N=C2c3[nH]c4ccc(Br)cc4c3CCC12 (centres undefined) | 5.24 |
| CCn1c2ccccc2c2cc(/C=N/NC(=O)c3ccccc3Cl)ccc21 | 5.51 |

For Cc1c2ccncc2c(C)c2c1[nH]c1ccccc12 [ELLIPTECINE] , what is its reported pIC50?
5.01
